# measured.on: phosphor-EGFR in H1975(L585R/T790M) mutant EGFR expressing cells (Homo sapiens, UniProt P00533, L858R/T790M)
# Sequence (P00533 25-1210 T790M/L858R): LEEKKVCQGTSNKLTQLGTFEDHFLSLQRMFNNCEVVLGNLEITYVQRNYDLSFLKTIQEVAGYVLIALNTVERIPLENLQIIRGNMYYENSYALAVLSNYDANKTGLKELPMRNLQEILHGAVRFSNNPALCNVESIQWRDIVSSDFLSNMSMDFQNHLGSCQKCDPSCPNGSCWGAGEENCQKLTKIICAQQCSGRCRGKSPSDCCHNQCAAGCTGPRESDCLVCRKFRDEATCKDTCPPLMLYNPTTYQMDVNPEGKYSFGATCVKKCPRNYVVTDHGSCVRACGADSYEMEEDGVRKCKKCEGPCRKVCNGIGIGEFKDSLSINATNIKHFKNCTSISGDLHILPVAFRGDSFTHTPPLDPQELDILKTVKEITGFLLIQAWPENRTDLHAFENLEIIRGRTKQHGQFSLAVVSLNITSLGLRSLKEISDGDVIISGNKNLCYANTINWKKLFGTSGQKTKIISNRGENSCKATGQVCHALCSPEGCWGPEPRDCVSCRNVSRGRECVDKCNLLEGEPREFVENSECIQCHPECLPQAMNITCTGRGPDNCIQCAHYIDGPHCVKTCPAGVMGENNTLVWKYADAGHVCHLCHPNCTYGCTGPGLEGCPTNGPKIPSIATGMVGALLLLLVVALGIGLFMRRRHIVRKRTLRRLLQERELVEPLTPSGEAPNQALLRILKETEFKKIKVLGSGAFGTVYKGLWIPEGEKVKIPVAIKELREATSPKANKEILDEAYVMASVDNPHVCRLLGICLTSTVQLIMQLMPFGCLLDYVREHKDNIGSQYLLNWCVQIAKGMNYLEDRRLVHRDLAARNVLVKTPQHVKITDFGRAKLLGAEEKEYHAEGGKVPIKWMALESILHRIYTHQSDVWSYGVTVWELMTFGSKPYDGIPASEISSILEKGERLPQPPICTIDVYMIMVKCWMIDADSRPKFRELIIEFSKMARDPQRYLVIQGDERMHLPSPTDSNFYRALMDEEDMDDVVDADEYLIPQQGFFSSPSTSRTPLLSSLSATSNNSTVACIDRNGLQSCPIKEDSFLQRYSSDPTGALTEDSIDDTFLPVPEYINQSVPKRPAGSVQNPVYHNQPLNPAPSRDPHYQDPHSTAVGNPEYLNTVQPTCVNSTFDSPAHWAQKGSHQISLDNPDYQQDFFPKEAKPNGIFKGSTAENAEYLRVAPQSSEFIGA
# protocol.summary: H1975 pEGFR MSD cellular assay
# assay.context: NCI-H1975 cells, serum starved, 1 hour compound incubation, pEGFR Tyr1068 MSD; read-out: HI975 pEGFR EC50

# molecule, EC50 / nM
data = [
    ("CC(C)n1nc(N2CC(O)(C(F)(F)F)C2)c2cnc(Nc3ccnc(N4CC[C@H](O)[C@H](F)C4)n3)cc21 (racemic) [Example 129]", 349),
    ("CC(C)n1nc(N2CC(O)C2)c2cnc(Nc3ccnc(-c4cnn(S(=O)(=O)C5CC5)c4)n3)cc21 [Example 37]", 91.7),
    ("CC(C)NC(=O)C1CN(c2nn(C(C)C)c3cc(Nc4ccnc(-c5cnn(S(=O)(=O)C6CC6)c5)n4)ncc23)C1 [Example 169]", 34.2),
    ("CC(C)n1nc(N2CCC3(COC3)C2)c2cnc(Nc3ccnc(-c4cnn(S(=O)(=O)C5CC5)c4)n3)cc21 [Example 120]", 32.8),
    ("CC[C@@H](C)n1nc(N2CC[C@@H](O)C2)c2cnc(Nc3ccnc(N4CCC5(CC4)CNC(=O)CO5)n3)cc21 (relative stereo) [Example 208]", 1200),
    ("CC(C)n1nc(N2CC(F)(F)C2)c2cnc(Nc3ccnc(N4CC[C@H](O)[C@H](F)C4)n3)cc21 (racemic) [Example 174]", 141),
]

---

Measured Ki, listed per entry for reference.
# measured.on: EGFR T790M L858R (Homo sapiens, UniProt P00533, L858R/T790M)
# Sequence (P00533 25-1210 T790M/L858R): as above
# protocol.summary: EGFR T790M L858R biochemical assay (Caliper mobility shift)
# assay.context: 5 μM ATP; apparent Ki (Morrison fit) converted by Cheng-Prusoff, Km of ATP 1.3 μM
endpoint: Ki (nM)

# compound, unit.symbol, censoring.operator, result
measured = [
    ("CC(n1nc(N2CC3(COC3)C2)c2cnc(Nc3ccnc(N4CCC(C)(O)CC4)n3)cc21)C(F)(F)F (centres unmarked) [Example 87]", "nM", "=", 6.4),
    ("CC(C)n1nc(N2CC(C)(CO)C2)c2cnc(Nc3ccnc(-c4cnn(S(=O)(=O)C5CC5)c4)n3)cc21 [Example 122]", "nM", "=", 1.2),
    ("CC(n1nc(N2CC[C@@H](O)C2)c2cnc(Nc3ccnc(N4CCC(C)(O)CC4)n3)cc21)C(F)(F)F (some centres unmarked) [Example 143]", "nM", "=", 2.9),
    ("CC(C)n1nc(N2CC(C(=O)N3CC4CCC(C3)O4)C2)c2cnc(Nc3ccnc(-c4cnn(S(=O)(=O)C5CC5)c4)n3)cc21 [Example 168]", "nM", "=", 1.5),
    ("CC(C)n1nc(N2CCC3(CCNC3=O)C2)c2cnc(Nc3ccnc(-c4cnn(S(=O)(=O)C5CC5)c4)n3)cc21 (centres unmarked) [Example 112]", "nM", "=", 1.1),
    ("CC(C)n1nc(N2CC(O)(CO)C2)c2cnc(Nc3ccnc(-c4cnn(S(=O)(=O)C5CC5)c4)n3)cc21 [Example 124]", "nM", "=", 0.7),
    ("CC(C)n1nc(N2CC(C(=O)N(C)C)C2)c2cnc(Nc3ccnc(-c4cnn(S(=O)(=O)C5CC5)c4)n3)cc21 [Example 57]", "nM", "<", 0.6),
    ("CC(n1nc(N2CC[C@@H](O)C2)c2cnc(Nc3ccnc(N4CC[C@](C)(O)[C@H](F)C4)n3)cc21)C(F)(F)F (relative stereo) [Example 79]", "nM", "=", 3.3),
    ("CC(C)n1nc(NCCC(N)=O)c2cnc(Nc3ccnc(-c4cnn(S(=O)(=O)C5CC5)c4)n3)cc21 [Example 47]", "nM", "=", 0.8),
    ("CC(C)n1nc(N2CC3(COC3)C2)c2cnc(Nc3ccnc(-c4cnn(CC5CC5)c4)n3)cc21 [Example 4]", "nM", "=", 3),
    ("C[C@@H](n1nc(N2CC[C@@H](O)C2)c2cnc(Nc3ccnc(N4CC[C@](C)(O)[C@H](F)C4)n3)cc21)C(F)(F)F (racemic) [Example 140]", "nM", "=", 3.1),
    ("CC(C)n1nc(N2CCCC2)c2cnc(Nc3ccnc(-c4cnn(CC5CC5)c4)n3)cc21 [Example 31]", "nM", "=", 1.4),
    ("CC(C)n1nc(N2CCN(C(=O)C(C)(C)O)CC2)c2cnc(Nc3ccnc(N4CCC(C)(O)CC4)n3)cc21 [Example 78]", "nM", "=", 21.5),
    ("CC(C)n1nc(N2CCC(O)C2)c2cnc(Nc3ccnc(N4CC[C@@H](O)[C@@H](F)C4)n3)cc21 (single isomer, unassigned) [Example 105]", "nM", "=", 1.2),
]

---

# measured.on: phosphor-EGFR in H1975(L585R/T790M) mutant EGFR expressing cells (Homo sapiens, UniProt P00533, L858R/T790M)
# protocol.summary: H1975 pEGFR MSD cellular assay
# assay.context: NCI-H1975 cells, serum starved, 1 hour compound incubation, pEGFR Tyr1068 MSD; read-out: HI975 pEGFR EC50
Measured log10 EC50, listed per entry for reference.
endpoint: log10 EC50 (log10 of the value in nM)

# compound, log10 EC50
rows = [
    ("CC(C)n1nc(OC2CCOC2)c2cnc(Nc3ccnc(-c4cnn(S(=O)(=O)C5CC5)c4)n3)cc21 (stereo not shown) [Example 29]", 2.19),
    ("CC(C)n1nc(N2CC(C(N)=O)C2)c2cnc(Nc3ccnc(-c4cnn(S(=O)(=O)C5CC5)c4)n3)cc21 [Example 55]", 2.16),
    ("CC(C)n1nc(N2C[C@@H](O)[C@@H](O)C2)c2cnc(Nc3ccnc(N4CCC(C)(O)CC4)n3)cc21 [Example 191]", 2.73),
    ("CC(C)n1nc(NCCC2OCC(N)CO2)c2cnc(Nc3ccnc(N4CCC(C)(O)CC4)n3)cc21 (stereo not shown) [Example 139]", 3.78),
    ("CC(C)n1nc(NC(C)(C)C)c2cnc(Nc3ccnc(-c4cnn(S(=O)(=O)C5CC5)c4)n3)cc21 [Example 74]", 3.97),
    ("CCC(C)n1nc(N2CC[C@@H](O)C2)c2cnc(Nc3ccnc(N4CCC(S(C)(=O)=O)CC4)n3)cc21 (stereo partly shown) [Example 206]", 2.47),
    ("CC(n1nc(N2CCNC2=O)c2cnc(Nc3ccnc(N4CCC(C)(O)CC4)n3)cc21)C(F)(F)F (stereo not shown) [Example 171]", 2.85),
    ("CC(C)n1nc(NC(=O)C(C)(C)O)c2cnc(Nc3ccnc(-c4cnn(S(=O)(=O)C5CC5)c4)n3)cc21 [Example 116]", 2.80),
    ("CCC(C)n1nc(N2CC(N)C(F)(F)C2)c2cnc(Nc3ccnc(N4CCC(C)(O)CC4)n3)cc21 (stereo not shown) [Example 184]", 1.98),
    ("CC(C)n1nc(N2CC(CO)C2)c2cnc(Nc3ccnc(-c4cnn(S(=O)(=O)C5CC5)c4)n3)cc21 [Example 63]", 1.27),
    ("CC(C)n1nc(NCCS(C)(=N)=O)c2cnc(Nc3ccnc(-c4cnn(S(=O)(=O)C5CC5)c4)n3)cc21 (stereo not shown) [Example 125]", 3.45),
    ("CC[C@H](C)n1nc(N2CC[C@@H](O)C2)c2cnc(Nc3ccnc(N4CC[C@](C)(O)[C@H](F)C4)n3)cc21 (relative stereo) [Example 69]", 1.83),
    ("CC[C@H](C)n1nc(N2CC3(COC3)C2)c2cnc(Nc3ccnc(N4CC[C@@](C)(O)[C@@H](F)C4)n3)cc21 (single isomer, unassigned) [Example 66]", 1.80),
    ("CC(C)n1nc(N2CC(C(=O)N3CCOCC3)C2)c2cnc(Nc3ccnc(-c4cnn(S(=O)(=O)C5CC5)c4)n3)cc21 [Example 163]", 1.42),
    ("COC1CCN(c2nccc(Nc3cc4c(cn3)c(N3CCCC3)nn4C(C)C)n2)CC1 [Example 15]", 1.42),
    ("CC(C)n1nc(N2CC(CC#N)C2)c2cnc(Nc3ccnc(-c4cnn(S(=O)(=O)C5CC5)c4)n3)cc21 [Example 121]", 1.29),
    ("CC(C)n1nc(N2CCO[C@H](CO)C2)c2cnc(Nc3ccnc(N4CC[C@H](O)[C@H](F)C4)n3)cc21 [Example 132]", 3.16),
    ("CCC(C)n1nc(N2CC[C@@H](C(N)=O)C2)c2cnc(Nc3ccnc(N4CCC(C)(O)CC4)n3)cc21 (stereo partly shown) [Example 145]", 2.96),
    ("CCC(C)n1nc(N2CC3(COC3)C2)c2cnc(Nc3ccnc(OCC(C)(C)S(C)(=O)=O)n3)cc21 (racemic) [Example 97]", 2.37),
    ("CC(C)n1nc(N2CC[C@@H](C#N)C2)c2cnc(Nc3ccnc(-c4cnn(S(=O)(=O)C5CC5)c4)n3)cc21 [Example 28]", 1.20),
    ("CC(C)n1nc(N2CC(F)(F)C2)c2cnc(Nc3ccnc(-c4cnn(S(=O)(=O)C5CC5)c4)n3)cc21 [Example 154]", 1.91),
    ("CC[C@@H](C)n1nc(N2CC3(COC3)C2)c2cnc(Nc3ccnc(N4CC[C@@](C)(O)[C@@H](F)C4)n3)cc21 (single isomer, unassigned) [Example 68]", 2.20),
]

Data provenance is patent US9951064B2.
